Reported GI50 values for the following molecules.
# System: NCI-H226
# measurement_notes: NCI tumour cell line growth inhibition, 48 h
Activity calls are given as the source filed them. Cut-off read from the data, not from the text of the source: active = GI50 up to about 1.1 µM and inactive = higher.

molecule | metric_name | result
S=C(Cc1ccc2c(c1)Sc1ccccc1O2)N1CCOCC1 | GI50 | 28.8 µM (inactive)
O=c1[nH]nc(-c2ccc([N+](=O)[O-])cc2)n1/N=C/c1ccc([N+](=O)[O-])cc1 | GI50 | > 100 µM (inactive)
C=C1C(=O)O[C@@H]2C[C@@]3(C)[C@H](O)CCC(=C)[C@@H]3C[C@H]12 | GI50 | 4.29 µM (inactive)
C=Cc1cnc([N+](=O)[O-])n1C | GI50 | > 100 µM (inactive)
O=C(Nc1ccc2[nH]c(C(=O)N3CC(CCl)c4ccc([N+](=O)[O-])cc43)cc2c1)c1cc2ccccc2o1 (centres undefined) | GI50 | > 1100 µM (inactive)

Return GI50 (reported value) for this molecule: Cc1cc(NS(=O)(=O)c2ccc(Nc3c4ccccc4nc4c(C(=O)N5CCN(CCOS(C)(=O)=O)CC5)cccc34)cc2)no1
> 100 µM (inactive)

Report GI50 for C[C@H]1CCC/C=C/[C@@H]2C[C@H](OC3OC(CO)C(O)C(O)C3O)C[C@H]2[C@H](O)/C=C/C(=O)O1 (some centres undefined)
22.5 µM (inactive)

Give the value of GI50 reported for the following: CCOC(=O)C1S/C(=N\c2ccccc2)N=C1C (centres undefined)
74 µM (inactive)

Input O=C1CCC(=O)C(C(=O)CCC(=O)Nc2cccc(Cl)c2)C1 (centres undefined) , output reported GI50.
> 100 µM (inactive)
